B1: FAM164A (parent)
chain: YDPDYIQCPYCQRRFNENAADRHI

variants of: B1; test: protein stability index of a GFP-peptide fusion (GPS, HEK-293T) (PSI 1-6); higher = more stable; settings: c terminus: a fixed tail appended;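 note: lentivirally expressed fusions sorted by FACS into six bins by GFP to DsRed ratio, PSI derived from sequencing read proportions per bin multiplied by bin number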
Please provide measured protein stability index for the entries that follow.
Simply state the number, no unit and no words.

Task: Which protein stability index value belongs to YDPDYIQCPYCQRRFNEPAADRHI [N18P] ?
Output: 3.91

Task: Which protein stability index value belongs to YDPDYINCPYCQRRFNENAADRHI [Q7N] ?
Output: 2.89

Task: Which protein stability index value belongs to YDPDYIQCPYCQRRFNQNAADRHI [E17Q] ?
Output: 4.94

Task: Which protein stability index value belongs to YDPDYIQCPYCQRRFNENAADVHI [R22V] ?
Output: 4.17

Task: Which protein stability index value belongs to YDPDYIQCPYCQRRFWENAADRHI [N16W] ?
Output: 4.61

Task: Which protein stability index value belongs to YDPDYIQCPYCQRFFNENAADRHI [R14F] ?
Output: 5.24

Task: Which protein stability index value belongs to YDPDYIQCPYCQFRFNENAADRHI [R13F] ?
Output: 3.18

Task: Which protein stability index value belongs to YDPDYIQCPYCQRRKNENAADRHI [F15K] ?
Output: 3.54

Task: Which protein stability index value belongs to YDPDYIQCPYCQRRFNEDAADRHI [N18D] ?
Output: 4.5

Task: Which protein stability index value belongs to YDPDYIQCPYCQRRFNENAADRII [H23I] ?
Output: 4.21

Task: Which protein stability index value belongs to YDPDYIQCWYCQRRFNENAADRHI [P9W] ?
Output: 2.52

Task: Which protein stability index value belongs to YDPDYIQCPYCLRRFNENAADRHI [Q12L] ?
Output: 4.9

Task: Which protein stability index value belongs to YDPDYIQCPYCQRLFNENAADRHI [R14L] ?
Output: 4.28

Task: Which protein stability index value belongs to YDPDNIQCPYCQRRFNENAADRHI [Y5N] ?
Output: 4.11

Task: Which protein stability index value belongs to YDPDYIQCPTCQRRFNENAADRHI [Y10T] ?
Output: 3.56

Task: Which protein stability index value belongs to YDPDYIQCPYCQRRYNENAADRHI [F15Y] ?
Output: 3.47

Task: Which protein stability index value belongs to YDPDYITCPYCQRRFNENAADRHI [Q7T] ?
Output: 4.57

Task: Which protein stability index value belongs to YDPDYIQCPYCQRRFNENAADIHI [R22I] ?
Output: 4.03

Task: Which protein stability index value belongs to YDPDYIQCPYCQERFNENAADRHI [R13E] ?
Output: 3.07

Task: Which protein stability index value belongs to YDPDYIQCPYCQRRFNENATDRHI [A20T] ?
Output: 3.93

Task: Which protein stability index value belongs to YDPDYIQCPYCQRRFNENPADRHI [A19P] ?
Output: 4.03

Task: Which protein stability index value belongs to YDPDYIQHPYCQRRFNENAADRHI [C8H] ?
Output: 3.46

Task: Which protein stability index value belongs to YDPDYFQCPYCQRRFNENAADRHI [I6F] ?
Output: 3.29

Task: Which protein stability index value belongs to YDPDYIQCPYCQRRFNENAADPHI [R22P] ?
Output: 4.29

Task: Which protein stability index value belongs to YDLDYIQCPYCQRRFNENAADRHI [P3L] ?
Output: 3.55

Task: Which protein stability index value belongs to HDPDYIQCPYCQRRFNENAADRHI [Y1H] ?
Output: 4.29

Task: Which protein stability index value belongs to YDPDYIQAPYCQRRFNENAADRHI [C8A] ?
Output: 3.88

Task: Which protein stability index value belongs to YDPDYIQCPYCFRRFNENAADRHI [Q12F] ?
Output: 4.24

Task: Which protein stability index value belongs to YDPFYIQCPYCQRRFNENAADRHI [D4F] ?
Output: 3.72

Task: Which protein stability index value belongs to YDPDYIQCPYCQRRFNGNAADRHI [E17G] ?
Output: 4.5

Task: Which protein stability index value belongs to YDPDYIQCPYCQRHFNENAADRHI [R14H] ?
Output: 4

Task: Which protein stability index value belongs to YDPDYIQCPYCQVRFNENAADRHI [R13V] ?
Output: 2.23

Task: Which protein stability index value belongs to YDYDYIQCPYCQRRFNENAADRHI [P3Y] ?
Output: 4.24

Task: Which protein stability index value belongs to YDPDYIQCPYCDRRFNENAADRHI [Q12D] ?
Output: 3.26

Task: Which protein stability index value belongs to YDFDYIQCPYCQRRFNENAADRHI [P3F] ?
Output: 4.02

Task: Which protein stability index value belongs to YDPDYIQCPYCIRRFNENAADRHI [Q12I] ?
Output: 2.52

Task: Which protein stability index value belongs to YDPDYIQCPYFQRRFNENAADRHI [C11F] ?
Output: 3.45

Task: Which protein stability index value belongs to YDVDYIQCPYCQRRFNENAADRHI [P3V] ?
Output: 4.25

Task: Which protein stability index value belongs to YLPDYIQCPYCQRRFNENAADRHI [D2L] ?
Output: 2.69

Task: Which protein stability index value belongs to YDPDYIRCPYCQRRFNENAADRHI [Q7R] ?
Output: 3.79

Task: Which protein stability index value belongs to YDPWYIQCPYCQRRFNENAADRHI [D4W] ?
Output: 3.5

Task: Which protein stability index value belongs to YWPDYIQCPYCQRRFNENAADRHI [D2W] ?
Output: 3.42

Task: Which protein stability index value belongs to YDPDYIQCPECQRRFNENAADRHI [Y10E] ?
Output: 3.26

Task: Which protein stability index value belongs to YDPDYIQCPYRQRRFNENAADRHI [C11R] ?
Output: 3.06

Task: Which protein stability index value belongs to YDPDYIQCPYCQPRFNENAADRHI [R13P] ?
Output: 2.24

Task: Which protein stability index value belongs to YDPDYIQCPYAQRRFNENAADRHI [C11A] ?
Output: 3.48
